Target: Gastrin-releasing peptide receptor (Mus musculus)
Test: Inhibition of 6 nM bombesin induced [3H]thymidine incorporation measured in swiss 3T3 cells using a mitogenicity assay
Format: functional, cell-based
Where a SMILES comes first, the peptide text is derived from it. [ ]: non-standard residue; d: D form. The star is where a group is joined. dProψ(CH2NH)PheNH2 = NC(=O)[C@H](Cc1ccccc1)NC[C@H]1CCCN1*; X8 = COc1cc(CCC(=O)*)cc(OC)c1OC; X2 = O=C(Cc1ccccc1C(F)(F)F)*; X6 = C[C@H](C(=O)*)c1ccccc1; X7 = CC(C)(CC(=O)*)c1ccccc1
Listed below: Activity values for each entry.

Guide cases for Activity, answers given:
COc1cc(CCC(=O)N[C@@H](Cc2c[nH]cn2)C(=O)N[C@@H](Cc2c[nH]c3ccccc23)C(=O)N[C@@H](C)C(=O)N[C@H](C(=O)N[C@H](C)C(=O)N[C@@H](Cc2c[nH]cn2)C(=O)N2CCC[C@@H]2CN[C@@H](Cc2ccccc2)C(N)=O)C(C)C)cc(OC)c1OC (X8-HWAV[dA]H-{dProψ(CH2NH)PheNH2}) | 0.3 nM
CC(C)[C@H](NC(=O)[C@H](C)NC(=O)[C@H](Cc1c[nH]c2ccccc12)NC(=O)[C@H](Cc1c[nH]cn1)NC(=O)[C@@H](C)c1ccccc1)C(=O)N[C@H](C)C(=O)N[C@@H](Cc1c[nH]cn1)C(=O)N1CCC[C@@H]1CN[C@@H](Cc1ccccc1)C(N)=O (X6-HWAV[dA]H-{dProψ(CH2NH)PheNH2}) | 7e-08
CC(C)[C@H](NC(=O)[C@H](C)NC(=O)[C@H](Cc1c[nH]c2ccccc12)NC(=O)[C@H](Cc1c[nH]cn1)NC(=O)Cc1ccccc1C(F)(F)F)C(=O)N[C@H](C)C(=O)N[C@@H](Cc1c[nH]cn1)C(=O)N1CCC[C@@H]1CN[C@@H](Cc1ccccc1)C(N)=O (X2-HWAV[dA]H-{dProψ(CH2NH)PheNH2}) | 330 nM

Lab note: next compound to report on.
Using known records, supply Activity for CC(C)[C@H](NC(=O)[C@H](C)NC(=O)[C@H](Cc1c[nH]c2ccccc12)NC(=O)[C@H](Cc1c[nH]cn1)NC(=O)CC(C)(C)c1ccccc1)C(=O)N[C@H](C)C(=O)N[C@@H](Cc1c[nH]cn1)C(=O)N1CCC[C@@H]1CN[C@@H](Cc1ccccc1)C(N)=O (X7-HWAV[dA]H-{dProψ(CH2NH)PheNH2})
18 nM

* * *

Listed below: Activity values for each entry.
Molecular target: Gastrin-releasing peptide receptor (Mus musculus) (UniProt P21729)
Sequence (P21729 whole entry): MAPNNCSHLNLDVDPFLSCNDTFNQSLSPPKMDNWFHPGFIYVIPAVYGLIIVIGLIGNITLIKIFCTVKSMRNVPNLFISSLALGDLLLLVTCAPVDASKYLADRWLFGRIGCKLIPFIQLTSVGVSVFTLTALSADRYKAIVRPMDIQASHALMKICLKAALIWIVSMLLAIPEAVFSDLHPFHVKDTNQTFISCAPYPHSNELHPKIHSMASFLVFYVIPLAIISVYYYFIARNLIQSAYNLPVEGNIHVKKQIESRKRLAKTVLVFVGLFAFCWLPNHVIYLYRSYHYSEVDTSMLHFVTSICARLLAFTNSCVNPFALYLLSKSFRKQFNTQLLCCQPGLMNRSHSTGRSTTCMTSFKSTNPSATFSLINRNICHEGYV
Assay: Inhibition of 6 nM bombesin induced [3H]thymidine incorporation measured in swiss 3T3 cells using a mitogenicity assay
Type: functional, cell-based
Where a SMILES comes first, the peptide text is derived from it. [ ]: non-standard residue; d: D form. The star is where a group is joined. ProΨ(CH2NH)PheNH2 = NC(=O)[C@H](Cc1ccccc1)NC[C@@H]1CCCN1*; dProψ(CH2NH)PheNH2 = NC(=O)[C@H](Cc1ccccc1)NC[C@H]1CCCN1*; Hydrocinnamoyl = O=C(CCc1ccccc1)*; X9 = O=C(CCN1c2ccccc2Sc2ccccc21)*; X1 = CC(C)(C(=O)*)c1ccccc1; Sar = CNCC(=O)O
Note: unit pM is implicit; provide only the numeric part.

Using known records, supply Activity for CC(C)[C@H](NC(=O)[C@H](C)NC(=O)[C@H](Cc1c[nH]c2ccccc12)NC(=O)[C@H](Cc1c[nH]cn1)NC(=O)C(C)(C)c1ccccc1)C(=O)N[C@H](C)C(=O)N[C@@H](Cc1c[nH]cn1)C(=O)N1CCC[C@@H]1CN[C@@H](Cc1ccccc1)C(N)=O (X1-HWAV[dA]H-{dProψ(CH2NH)PheNH2})
340

Using known records, supply Activity for CC(C)[C@H](NC(=O)[C@H](C)NC(=O)[C@H](Cc1c[nH]c2ccccc12)NC(=O)[C@H](Cc1c[nH]cn1)NC(=O)CCc1cccc(C(F)(F)F)c1)C(=O)N[C@H](C)C(=O)N[C@@H](Cc1c[nH]cn1)C(=O)N1CCC[C@@H]1CN[C@@H](Cc1ccccc1)C(N)=O
350

Using known records, supply Activity for CC(C)[C@H](NC(=O)[C@H](C)NC(=O)[C@H](Cc1c[nH]c2ccccc12)NC(=O)[C@H](Cc1c[nH]cn1)NC(=O)CCc1ccccc1)C(=O)N(C)CC(=O)N[C@@H](Cc1c[nH]cn1)C(=O)N1CCC[C@H]1CN[C@@H](Cc1ccccc1)C(N)=O (Hydrocinnamoyl-HWAV[Sar]H-{ProΨ(CH2NH)PheNH2})
430

Using known records, supply Activity for CC(C)[C@H](NC(=O)[C@H](C)NC(=O)[C@H](Cc1c[nH]c2ccccc12)NC(=O)[C@H](Cc1c[nH]cn1)NC(=O)c1cccc2ccccc12)C(=O)N[C@H](C)C(=O)N[C@@H](Cc1c[nH]cn1)C(=O)N1CCC[C@@H]1CN[C@@H](Cc1ccccc1)C(N)=O
300

Using known records, supply Activity for CC(C)CC(NC(=O)[C@H](Cc1c[nH]cn1)NC(=O)C(C)NC(=O)[C@@H](NC(=O)C(C)NC(=O)[C@H](Cc1c[nH]c2ccccc12)NC(=O)[C@H](Cc1c[nH]cn1)NC(=O)CCc1ccccc1)C(C)C)C(O)CC(=O)N[C@@H](Cc1ccccc1)C(N)=O (stereo in doubt)
6000

Using known records, supply Activity for CC(NC(=O)[C@@H](NC[C@H](C)NC(=O)[C@H](Cc1c[nH]c2ccccc12)NC(=O)[C@H](Cc1c[nH]cn1)NC(=O)CCc1ccccc1)C(C)C)C(=O)N[C@@H](Cc1c[nH]cn1)C(=O)N1CCC[C@H]1CN[C@@H](Cc1ccccc1)C(N)=O (stereo in doubt)
47000

Using known records, supply Activity for CC(C)[C@H](NC(=O)[C@H](C)NC(=O)[C@H](Cc1c[nH]c2ccccc12)NC(=O)[C@H](Cc1c[nH]cn1)NC(=O)CCN1c2ccccc2Sc2ccccc21)C(=O)N[C@H](C)C(=O)N[C@@H](Cc1c[nH]cn1)C(=O)N1CCC[C@@H]1CN[C@@H](Cc1ccccc1)C(N)=O (X9-HWAV[dA]H-{dProψ(CH2NH)PheNH2})
29000

* * *

Target: Gastrin-releasing peptide receptor (Mus musculus, UniProt P21729)
Sequence (P21729 whole entry): as above
Experiment: Ability of peptide to inhibit binding of 10 pM [125I]gastrin releasing peptide to S-3T3 cell membrane.
Type: cell-based
Where a SMILES comes first, the peptide text is derived from it. [ ]: non-standard residue; d: D form. The star is where a group is joined. dProψ(CH2NH)PheNH2 = NC(=O)[C@H](Cc1ccccc1)NC[C@H]1CCCN1*; X1 = CC(C)(C(=O)*)c1ccccc1
value-kind: pIC50
Please keep in mind that pIC50 is minus log10 of the molar concentration; only the number is needed.

CC(NC(=O)[C@H](Cc1c[nH]c2ccccc12)NC(=O)[C@H](Cc1c[nH]cn1)NC(=O)CCc1ccccc1)C(=O)N[C@H](C(=O)NC(C)C(=O)N[C@@H](Cc1c[nH]cn1)C(=O)N1CCC[C@H]1C(O)CC(=O)N[C@@H](Cc1ccccc1)C(N)=O)C(C)C (stereo in doubt) | 7.51

Using known records, supply pIC50 for CC(C)[C@H](NC(=O)[C@H](C)NC(=O)[C@H](Cc1c[nH]c2ccccc12)NC(=O)[C@H](Cc1c[nH]cn1)NC(=O)C(C)(C)c1ccccc1)C(=O)N[C@H](C)C(=O)N[C@@H](Cc1c[nH]cn1)C(=O)N1CCC[C@@H]1CN[C@@H](Cc1ccccc1)C(N)=O (X1-HWAV[dA]H-{dProψ(CH2NH)PheNH2})
9.74

Using known records, supply pIC50 for CC(NC(=O)[C@H](Cc1c[nH]c2ccccc12)NC(=O)[C@H](Cc1c[nH]cn1)NC(=O)CCc1ccccc1)C(=O)N[C@H](C(=O)NC(C)C(=O)N[C@@H](Cc1c[nH]cn1)C(=O)N1CCC[C@H]1CN[C@@H](Cc1ccccc1)C(N)=O)C(C)C (stereo in doubt)
9.66

Using known records, supply pIC50 for CC(C)[C@H](NC(=O)[C@H](C)NC(=O)[C@H](Cc1c[nH]c2ccccc12)NC(=O)[C@H](Cc1cnc[nH]1)NC(=O)CCc1cccc(C(F)(F)F)c1)C(=O)N[C@H](C)C(=O)N[C@@H](Cc1cnc[nH]1)C(=O)N1CCC[C@@H]1CN[C@@H](Cc1ccccc1)C(N)=O
9.80

* * *

Listed below: IC50 values for each entry.
Target: UniProt:P21729
Assay: Ability of peptide to inhibit binding of 10 pM [125I]gastrin releasing peptide to S-3T3 cell membrane.
Format: cell-based
Where a SMILES comes first, the peptide text is derived from it. [ ]: non-standard residue; d: D form. The star is where a group is joined. ProΨ(CH2NH)PheNH2 = NC(=O)[C@H](Cc1ccccc1)NC[C@@H]1CCCN1*; Hydrocinnamoyl = O=C(CCc1ccccc1)*; Sar = CNCC(=O)O
Note: unit µM is implicit; provide only the numeric part.

CC(C)[C@H](NC(=O)[C@H](C)NC(=O)[C@H](Cc1c[nH]c2ccccc12)NC(=O)[C@H](Cc1cnc[nH]1)NC(=O)CCc1ccccc1)C(=O)N(C)CC(=O)N[C@@H](Cc1cnc[nH]1)C(=O)N1CCC[C@H]1CN[C@@H](Cc1ccccc1)C(N)=O (Hydrocinnamoyl-HWAV[Sar]H-{ProΨ(CH2NH)PheNH2}) | 0.021

Lab note: next molecule to report on.
Write IC50 of CC(C)[C@H](NC(=O)[C@H](C)NC(=O)[C@H](Cc1c[nH]c2ccccc12)NC(=O)[C@H](Cc1c[nH]cn1)NC(=O)Cc1ccccc1N)C(=O)N[C@H](C)C(=O)N[C@@H](Cc1c[nH]cn1)C(=O)N1CCC[C@@H]1CN[C@@H](Cc1ccccc1)C(N)=O ; system used: UniProt:P21729
0.002

The measured values listed here are drawn from ChEMBL document CHEMBL1127325.
